- assayed.system: BRD4 BD1 (Homo sapiens)
- protocol.summary: AlphaScreen binding assay, BRD4 Bromodomain 1
pIC50: −log10 of the molar value.
Exercise: state measured pIC50 for each of the compounds provided.

Take a look at these entries with their results.
* CC(=O)N1c2ccc(-c3ccc(S(C)(=O)=O)cc3)cc2N(C(=O)CC#N)C[C@@H]1C [Example I-247] | < 5.00
* CC(=O)N1c2ccc(-c3cnn(Cc4ccno4)c3)cc2N(C(=O)OC(C)C)C[C@@H]1C [Example I-131] | 6.00 to 7.00
* CCCS(=O)(=O)c1ccc(-c2ccc3c(c2)N(C(=O)OC2CCCCC2)C[C@H](C)N3C(C)=O)cc1 [Example I-1235] | 6.00 to 7.00

Here are 2 compounds. What values of pIC50 were reported for them?
1. CC(=O)N1c2ccc(-c3ccc(N4CCOCC4)cc3)cc2N(C(=O)OC(C)C)C[C@@H]1C [Example I-1061]
2. CC(=O)N1c2ccc(-c3ccc(S(C)(=O)=O)cn3)cc2N(C(=O)c2ccco2)C[C@@H]1C [Example I-407]

OUT:
5.00 to 6.00
5.00 to 6.00

Here are 2 compounds. What values of pIC50 were reported for them?
1. CC(=O)N1c2ccc(-c3cccc(NS(=O)(=O)N(C)C)c3)cc2N(C(=O)C2CCC2)C[C@@H]1C [Example I-1144]
2. CC(=O)N1c2ccc(-c3cnn(CCS(C)(=O)=O)c3)cc2N(C(=O)C2CC2)CC1C (stereo not shown) [Example I-344]

OUT:
5.00 to 6.00
5.00 to 6.00
